Target: UniProt:Q12908
Assay: ASBT cis-inhibition of taurocholate uptake in ASBT-MDCK cells
Details: read-out: Ki estimated from one concentration
Kind request: treat 300 µM as inclusive, so potency estimated from few doses at 300 µM or higher is Fulfilled, anything lower is Not fulfilled.

Consider the worked cases shown below.
Compound: CCCCNc1cc(C(=O)O)cc(S(N)(=O)=O)c1Oc1ccccc1 [Bumetanide, bumetanide]
System tested: UniProt:Q12908
Classification: Fulfilled
--
Compound: COCc1c(C(C)C)nc(C(C)C)c(/C=C/[C@@H](O)C[C@@H](O)CC(=O)O)c1-c1ccc(F)cc1
System tested: UniProt:Q12908
Classification: Not fulfilled
--
Compound: CC(C(=O)O)c1cccc(C(=O)c2ccccc2)c1 (centres unmarked)
System tested: UniProt:Q12908
Classification: Fulfilled
--
Compound: O=C(O)C[C@H](O)C[C@H](O)/C=C/c1c(C2CC2)nc2ccccc2c1-c1ccc(F)cc1
System tested: UniProt:Q12908
Classification: Not fulfilled
--
Compound: CC(C)(C#N)c1cc(Cn2cncn2)cc(C(C)(C)C#N)c1
System tested: UniProt:Q12908
Classification: Fulfilled

Ask | Given NS(=O)(=O)c1cc2c(cc1C(F)(F)F)NC(Cc1ccccc1)NS2(=O)=O (centres unmarked) [Bendroflumethiazide, bendroflumethiazide] , state whether its potency estimated from few doses is at least 300 µM.
Reply | Not fulfilled

Ask | Given Clc1ccc(C(Cn2ccnc2)OCc2ccsc2Cl)c(Cl)c1 (centres unmarked) , state whether its potency estimated from few doses is at least 300 µM.
Reply | Not fulfilled

* * *

Give measured inhibition for each item. Keep answers brief.
Target: human apical sodium-dependent transporter (SLC10A2, ASBT) (Homo sapiens)
Conditions: 50 µM
Answers are plain numbers, in %.

Molecule: CCOC(=O)C1=C(C)NC(C)=C(C(=O)OC)C1c1cccc([N+](=O)[O-])c1 (stereo not drawn)
Reported endpoint: inhibition
Unit tag: %
Meas value: 39.7
--
Molecule: COC(=O)C1=C(C)NC(C)=C(C(=O)OC(C)C)C1c1cccc2nonc12 (stereo not drawn)
Reported endpoint: inhibition
Unit tag: %
Meas value: 49.7

For every listed record, write down its inhibition.
1. CC(C)(C#N)c1cc(Cn2cncn2)cc(C(C)(C)C#N)c1
2. COc1ccc2c(c1)c(CC(=O)O)c(C)n2C(=O)c1ccc(Cl)cc1
3. CC(C)OC(=O)CCC/C=C\C[C@@H]1[C@@H](CC[C@@H](O)CCc2ccccc2)[C@H](O)C[C@@H]1O
4. CC(C)n1c(/C=C/C(O)CC(O)CC(=O)O)c(-c2ccc(F)cc2)c2ccccc21 (stereo not drawn)
5. CCCCNc1cc(C(=O)O)cc(S(N)(=O)=O)c1Oc1ccccc1 [Bumetanide, bumetanide]
6. N=C(N)c1ccc(OCCCCCOc2ccc(C(=N)N)cc2)cc1 [Pentamidine Isethionate, pentamidine isethionate]

Reply |
[12, 27.3, 60.3, 52.6, 12.2, 10.7]

response.value for Clc1ccc(C(Cn2ccnc2)OCc2ccsc2Cl)c(Cl)c1 (stereo not drawn) (field: inhibition) = 47.7

* * *

Target: human organic cation/carnitine transporter (SLC22A5, OCTN2) (Homo sapiens, UniProt O76082)
Sequence (O76082 1-557): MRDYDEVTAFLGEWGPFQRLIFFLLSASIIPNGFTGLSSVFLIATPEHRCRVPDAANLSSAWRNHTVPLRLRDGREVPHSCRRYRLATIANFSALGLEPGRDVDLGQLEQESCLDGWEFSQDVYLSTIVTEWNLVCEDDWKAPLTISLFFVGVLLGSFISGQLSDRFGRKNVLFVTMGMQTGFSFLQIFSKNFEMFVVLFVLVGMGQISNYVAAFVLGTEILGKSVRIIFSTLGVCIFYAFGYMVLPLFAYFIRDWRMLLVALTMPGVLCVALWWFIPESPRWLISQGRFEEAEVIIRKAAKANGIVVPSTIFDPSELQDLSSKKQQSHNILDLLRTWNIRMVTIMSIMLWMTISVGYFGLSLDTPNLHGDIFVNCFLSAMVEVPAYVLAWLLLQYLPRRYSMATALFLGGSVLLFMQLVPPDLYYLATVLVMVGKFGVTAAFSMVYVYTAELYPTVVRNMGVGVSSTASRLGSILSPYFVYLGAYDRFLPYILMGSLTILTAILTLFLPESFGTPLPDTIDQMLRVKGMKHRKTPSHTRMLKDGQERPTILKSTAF
Assay: OCTN2 cis-inhibition of L-carnitine uptake in OCTN2-MDCK cells
Assay type: cell-based
Settings: Ki, inhibitor concentration range 0-5 μM
Reported endpoint: pKi
Numbers only, as −log10 of the molar value.

response.value for "C[N+](C)(C)C[C@@H](O)CC(=O)[O-]" (field: pKi) = 4.99

* * *

Target: human apical sodium-dependent transporter (SLC10A2, ASBT) (Homo sapiens, UniProt Q12908)
Assay: ASBT cis-inhibition of taurocholate uptake in ASBT-MDCK cells
Settings: inhibitor concentration range 0-100 μM; mean±S.E.
Reported endpoint: pKi
Give bare numbers, as −log10 of the molar value.

response.value for Clc1ccc(C(Cn2ccnc2)OCc2ccsc2Cl)c(Cl)c1 (stereo not shown) (field: pKi) = 4.48

* * *

Biological target: excitatory amino acid transporters (SLC1A6, EAAT4) (Rattus norvegicus, UniProt O35921)
Test: EAAT4 cis-inhibition of glutamate uptake in stably transfected HEK 293 cells
Assay type: cell-based
Settings: Ki, inhibitor concentration range 0-[…]
Reported endpoint: pKi
Numbers only, as −log10 of the molar value.

response.value for "N[C@@H](CC(=O)O)C(=O)O" (field: pKi) = 5.70

* * *

Biological target: human organic cation/carnitine transporter (SLC22A5, OCTN2) (Homo sapiens, UniProt O76082)
Experiment: OCTN2 cis-inhibition of L-carnitine uptake in OCTN2-MDCK cells
Type: cell-based
Conditions: Ki, inhibitor concentration range 0-1 μM
Reported endpoint: Ki (µM)
Give bare numbers, in µM.

response.value for "C[N+](C)(C)C[C@@H](O)CC(=O)[O-]" (field: Ki) = 8.9

* * *

Give measured pKi for each item. Keep answers brief.
Molecular target: excitatory amino acid transporters (SLC1A6, EAAT4) (Rattus norvegicus, UniProt O35921)
Sequence (O35921 1-561): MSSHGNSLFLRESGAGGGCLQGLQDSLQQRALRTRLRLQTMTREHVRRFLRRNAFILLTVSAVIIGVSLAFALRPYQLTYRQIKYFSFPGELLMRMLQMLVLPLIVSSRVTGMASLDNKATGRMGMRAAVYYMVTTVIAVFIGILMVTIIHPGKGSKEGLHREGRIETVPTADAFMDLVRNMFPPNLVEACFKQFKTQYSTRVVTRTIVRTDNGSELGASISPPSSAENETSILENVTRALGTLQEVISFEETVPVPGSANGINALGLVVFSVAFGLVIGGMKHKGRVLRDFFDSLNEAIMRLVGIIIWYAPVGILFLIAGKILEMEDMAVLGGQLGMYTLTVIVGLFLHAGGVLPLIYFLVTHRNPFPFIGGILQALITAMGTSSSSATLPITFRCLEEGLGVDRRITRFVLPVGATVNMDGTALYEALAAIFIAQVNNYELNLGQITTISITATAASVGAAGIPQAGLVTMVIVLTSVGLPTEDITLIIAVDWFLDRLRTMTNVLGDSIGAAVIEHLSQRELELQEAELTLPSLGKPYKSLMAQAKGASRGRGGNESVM
Experiment: EAAT4 cis-inhibition of glutamate uptake in stably transfected HEK 293 cells
Type: cell-based
Settings: Ki, inhibitor concentration range 0-5 μM
Give bare numbers, as −log10 of the molar value.

Chemical smiles: N[C@@H](CC(=O)O)C(=O)O
pKi: 5.76

--- query ---
response.value for "N[C@H](CC(=O)O)C(=O)O" (field: pKi) = 5.04

* * *

Give measured pKi for each item. Keep answers brief.
Target: human apical sodium-dependent transporter (SLC10A2, ASBT) (Homo sapiens)
Sequence (Q12908 1-348): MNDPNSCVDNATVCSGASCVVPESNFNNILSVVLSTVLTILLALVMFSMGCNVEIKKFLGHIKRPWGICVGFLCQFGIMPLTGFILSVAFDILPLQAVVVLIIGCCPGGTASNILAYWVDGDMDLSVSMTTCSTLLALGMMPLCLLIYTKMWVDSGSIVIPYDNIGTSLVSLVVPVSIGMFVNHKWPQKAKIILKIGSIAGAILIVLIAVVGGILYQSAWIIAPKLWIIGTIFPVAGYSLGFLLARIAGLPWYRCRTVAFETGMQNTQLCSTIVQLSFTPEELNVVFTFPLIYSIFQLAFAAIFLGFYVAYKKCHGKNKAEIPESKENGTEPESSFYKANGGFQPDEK
Test: ASBT cis-inhibition of taurocholate uptake in ASBT-MDCK cells
Settings: Ki, inhibitor concentration range 0-500 μM; mean±S.E.
Where a name gives a salt, the structure may show the parent alone.
One number for each entry, as −log10 of the molar value.

# example entries with known answers
Compound: CCCCNc1cc(C(=O)O)cc(S(N)(=O)=O)c1Oc1ccccc1 [Bumetanide, bumetanide]
pKi: 3.47
//
Compound: CN1CCCCC1CCN1c2ccccc2Sc2ccc([S+](C)[O-])cc21 (stereo not shown) [Mesoridazine besylate]
pKi: 4.19
//
Compound: CC(C)OC(=O)CCC/C=C\C[C@@H]1[C@@H](CC[C@@H](O)CCc2ccccc2)[C@H](O)C[C@@H]1O [Latanoprost, latanoprost]
pKi: 4.88
//
Compound: CN1CCN(CC/C=C2/c3ccccc3Sc3ccc(S(=O)(=O)N(C)C)cc32)CC1 [Thiothixene, thiothixene]
pKi: 3.04
//
Compound: NS(=O)(=O)c1cc2c(cc1C(F)(F)F)NC(Cc1ccccc1)NS2(=O)=O (stereo not shown) [Bendroflumethiazide, bendroflumethiazide]
pKi: 3.84
//
Compound: O=C(O)C[C@H](O)C[C@H](O)/C=C/c1c(C2CC2)nc2ccccc2c1-c1ccc(F)cc1 [Pitavastatin]
pKi: 4.17
//
Compound: Cc1c(OCC(F)(F)F)ccnc1C[S+]([O-])c1nc2ccccc2[nH]1 (stereo not shown) [Lansoprazole]
pKi: 3.88
//
Compound: CC(C)c1nc(N(C)S(C)(=O)=O)nc(-c2ccc(F)cc2)c1/C=C/[C@@H](O)C[C@@H](O)CC(=O)O [Rosuvastatin]
pKi: 3.93

For every listed record, write down its pKi.
1. CCCCOc1cc(C(=O)NCCN(CC)CC)c2ccccc2n1 [Dibucaine hydrochloride, dibucaine hydrochloride]
2. Clc1ccc(C(Cn2ccnc2)OCc2ccsc2Cl)c(Cl)c1 (stereo not shown) [Tioconazole, tioconazole]
3. CC(C(=O)O)c1cccc(C(=O)c2ccccc2)c1 (stereo not shown) [Ketoprofen, ketoprofen]
4. CC(C)(C#N)c1cc(Cn2cncn2)cc(C(C)(C)C#N)c1 [Anastrozole]
5. CC(C)n1c(/C=C/C(O)CC(O)CC(=O)O)c(-c2ccc(F)cc2)c2ccccc21 (stereo not shown) [Fluvastatin, fluvastatin]
6. COc1ccc2c(c1)c(CC(=O)O)c(C)n2C(=O)c1ccc(Cl)cc1 [Indomethacin, indomethacin]

Reply |
1. 4.00
2. 4.47
3. 3.52
4. 3.16
5. 4.60
6. 4.06

For every listed record, write down its pKi.
1. COc1ccc([C@@H]2Sc3ccccc3N(CCN(C)C)C(=O)[C@@H]2OC(C)=O)cc1 [Diltiazem hydrochloride, diltiazem hydrochloride]
2. N=C(N)c1ccc(OCCCCCOc2ccc(C(=N)N)cc2)cc1 [Pentamidine Isethionate, pentamidine isethionate]

Reply |
3.56
3.79
